# testSummary: Pharmacokinetic study of 153 (and metabolite endothal) in SD rats, iv and po; plasma, liver, brain
# Assay type: in vivo
# assayContext: female, SD, rat, in vivo, iv, 1.25 mg/kg, 153 in plasma, IV 1.25 mg/kg, Mean; read-out: MRT (0-t)
# Experimental: The blood, liver and brain tissue samples were collected at predetermined times from rats. […] Compound were diluted shortly before use in 4% sodium bicarbonate for sterile injection (this is the standard pediatric solution of NaHCO3 with a pH of about 8.5). Compound 153 was freshly prepared by diluting the drugs shortly before use in 4% sodium bicarbonate for sterile injection (this is the standard pediatric solution of NaHCO3 with a pH of about 8.5). […]
recordedEndpoint: MRT last (min)
Quick reminder: number only, in min, skip the unit.

The reported MRT last of the compound CCCOC(=O)C1C2CCC(O2)C1C(=O)N1CCN(C)CC1 (stereo not shown) [Compound 153] was 39.4

----------
# testSummary: Pharmacokinetic study of 157 (and metabolite endothal) in SD rats, iv and po; plasma, liver, brain
# Assay type: in vivo
# assayContext: female, SD (Sprague-Dawley), rat, in vivo, po, 1.5 mg/kg, 157 in plasma, PO 1.5 mg/kg, Mean; read-out: T1/2 (converted)
recordedEndpoint: half-life (min)
Quick reminder: number only, in min, skip the unit.

The reported half-life of the molecule CCCCCCCOC(=O)C1C2CCC(O2)C1C(=O)N1CCN(C)CC1 (stereo not shown) was 24.2

----------
# testSummary: Pharmacokinetic study of 153 (and metabolite endothal) in SD rats, iv and po; plasma, liver, brain
# Format: in vivo
# assayContext: female, SD, rat, in vivo, po, 1.25 mg/kg, 153 in plasma, PO 1.25 mg/kg, rat 2; read-out: T1/2 (converted)
recordedEndpoint: half-life (min)
Quick reminder: number only, in min, skip the unit.

The reported half-life of the compound CCCOC(=O)C1C2CCC(O2)C1C(=O)N1CCN(C)CC1 (stereo not shown) was 21.3

----------
# testSummary: in vivo
# assayContext: female, Sprague-Dawley (SD), rat, in vivo, iv, 1.5 mg/kg, 100 brain concentration
recordedEndpoint: concentration at 1 h (ng/g)
Quick reminder: number only, in ng/g, skip the unit.

The reported concentration at 1 h of the molecule CN1CCN(C(=O)C2C3CCC(O3)C2C(=O)O)CC1 (stereo not shown) was 28.2

----------
# testSummary: Pharmacokinetic study of 153 (and metabolite endothal) in SD rats, iv and po; plasma, liver, brain
# Assay type: in vivo
# assayContext: female, SD, rat, in vivo, iv, 1.25 mg/kg, iv 1.25 mg/kg, 2 hr, Rat 2; read-out: 153 liver concentration
recordedEndpoint: concentration at 2 h (ng/g)
Quick reminder: number only, in ng/g, skip the unit.

The reported concentration at 2 h of the molecule CCCOC(=O)C1C2CCC(O2)C1C(=O)N1CCN(C)CC1 (stereo not shown) was 41.2

----------
# testSummary: Pharmacokinetic study of 153 (and metabolite endothal) in SD rats, iv and po; plasma, liver, brain
# Type: in vivo
# assayContext: female, SD, rat, in vivo, iv, 1.25 mg/kg, Liver, 1.25 mg/kg IV, rat 1; read-out: T1/2 (converted)
recordedEndpoint: half-life (min)
Quick reminder: number only, in min, skip the unit.

The reported half-life of the compound CCCOC(=O)C1C2CCC(O2)C1C(=O)N1CCN(C)CC1 (stereo not shown) was 36.5

Origin of values: patent US20160264593A1
